melting point by entry:

Sample records with melting point:
| Compound | Observed Result |
| --- | --- |
| CC(=O)Nc1ccc2c(c1)S(=O)(=O)N(CCCCN1CCN(c3ncccn3)CC1)C2=O | 162 °C |
| Oc1cc2c(cc1O)CN(c1ncnc3c(N4CCOCC4)nc(Cl)nc13)CC2 | 187 to 189 °C |
| COc1cc(C(=O)c2cccs2)cc([N+](=O)[O-])c1OC | 102 to 104 °C |
| Cc1oc(=O)oc1COC(=O)c1oc2cccc(O)c2c1C | 168 to 170 °C |
| CC1(c2cc(-c3ccc(F)cc3F)cc(C(=O)Nc3ccc(S(=O)(=O)C(F)(F)F)cc3Cl)c2O)CCCCC1 | 114 to 115 °C |

Q: Give the measured melting point of "COc1cccc(CNCc2ccc3nc(N)c4ncn(CC(C)C)c4c3c2)c1" .
A: 125 to 126 °C

Q: Same for Cc1ccc(S(=O)(=O)N2[C@@H](c3nc(C)no3)CC[C@H]2c2ccc(F)cc2)cc1 (racemic)
A: 128 °C

Q: Quick one: "C1=C(c2cc3ccccc3[nH]2)CCN(CCC2Cc3ccccc3C2)C1"
A: 175 to 176 °C

---

Value Kind: melting point

Completed entries (count: 5):
| Compound | Observed Result |
| --- | --- |
| Cc1ccccc1-c1cnc2c(C(F)(F)F)cccc2c1-c1cccc(NC(=O)Nc2ccccc2)c1 | 192 to 195 °C |
| CCCCN(Cc1ccc(-c2ccccc2-c2nnn[nH]2)cc1)c1nc(SC)ncc1C(=O)OCC | 161 to 163 °C |
| CC(C)CCCC(C)C1CCC2C3CC=C4CC(OCCCCCCO)CCC4(C)C3CCC12C (stereo not given) | 75.9 to 81 °C |
| O=C(Nc1cccc(F)c1)N1CCc2cc(S(=O)(=O)N3CCN(c4cccc(Cl)c4)CC3)ccc21 | 208 to 210 °C |
| CN1CCN(C(=O)C2CCC(Nc3ncc4ncnc(Nc5ccc(F)c(Cl)c5)c4n3)CC2)CC1 (stereo not given) | 194 to 197 °C |

Q: Would you kindly share the measured melting point for CC1(C)c2cc(O)ccc2OC1O (stereo not given) ?
A: 78 to 81 °C

Q: Subsequent entry: "COc1ccc(S(=O)(=O)Nc2ccccc2Nc2ccc(Cl)cc2)cc1"
A: 127 to 128 °C

Q: Same for "CC1(C)CC(=O)C2=C(C1)NC1=C(C(=O)CC(C)(C)C1)C2c1cccc(Oc2cnccn2)c1"
A: 204 to 207 °C

---

Catalogue of melting point values

# example entries with known answers
| Compound | melting point |
| --- | --- |
| CC(=O)N1CCC2(CC1)Cc1cc([N+](=O)[O-])ccc1O2 | 149 to 150 °C |
| COc1cccc(S)c1S(N)(=O)=O | 166 °C |
| c1cnc2c(OCCOc3nccnc3N3CCNCC3)cccc2c1 | 98 to 100 °C |
| Cc1cc(Cl)c(C(=O)c2cc(C)c(C)cc2Cl)cc1C | 148 to 149 °C |

Q: Item "CC1(C)CCC[C@H](NC(c2ccccc2)(c2ccccc2)c2ccccc2)C(=O)N1" has what recorded melting point?
A: 139 to 140 °C

Q: Query "CCNC(=O)c1ccc(COC(=O)c2ccc(OC)c(C(C)(C)C)c2)cc1" next
A: 107 to 108 °C

---

Value Kind: melting point

| Molecule | Value Kind | Observed Result |
| --- | --- | --- |
| O=Cc1cccc2ccc(F)cc12 | melting point | 95 to 96 °C |
| O=C1c2ccc(O)cc2C(=O)N1c1ccc(C2(c3ccc(N4C(=O)c5ccc(O)cc5C4=O)cc3)c3ccccc3-c3ccccc32)cc1 | melting point | > 300 °C |
| CC(C)(C)CC(=O)Nc1ccc2oc3c(c2c1)CCC3 | melting point | 196 to 197 °C |
| CC(C)C[C@@H](NC(=O)OC(C)(C)C)C(=O)N[C@H](C(=O)OCc1ccccc1)C(C)C | melting point | 82 to 83 °C |
| C[C@H]1CCCC(C)(C)[C@@H]1[C@H](O)c1ccccc1 | melting point | 32 to 34 °C |

Q: Would you mind telling me what melting point value was observed for "O=c1[nH]c2ccccc2n1CCCN1CCC(c2noc3cccc(F)c23)CC1" ?
A: 174 to 175 °C

Q: Now give it for "CC(=O)OCCOc1ncc(Cl)c(N)c1Cl" too.
A: 76 to 77 °C

Q: Next molecule up: "CC(C)[C@H](NCc1ccc(I)cc1)C(=O)O"
A: 256 to 258 °C

Q: Item: "Cc1oncc1C(=O)N1CCC(O)CC1"
A: 70.5 to 72.5 °C

Q: One more molecule: "CC(C)(C)OC(=O)c1nc(-c2cccc3ccccc23)[nH]c1-c1ccncc1"
A: 184 to 190 °C

Q: Same again, this time with "O=C1CCC(n2cnc(-c3ccc(F)cc3)c2-c2ccnc(O)n2)CC1"
A: 236 to 238 °C

Q: Follow-up item: "C=CCOC(=O)/C(=N\O)c1csc(N)n1"
A: 184 to 185 °C

Q: Same read-out for CCN(CC)C(=S)SCC(c1cccc2ccccc12)[N+](=O)[O-] (configuration not stated) ?
A: 136 to 138 °C

Q: Here is the next molecule: COC1c2ccccc2CSc2ccc(Br)cc21 (configuration not stated)
A: 68 to 71 °C

Q: Now consider "Brc1ccc2c(c1)[nH]c1cc(Br)ccc12" .
A: 224 to 225 °C

Q: And what about the molecule "CC(=O)c1cnc(-c2ccccc2)nc1-c1ccccc1" ?
A: 100 to 108 °C

Q: Request: "C[C@H](c1ccccc1)N1C(=O)N(C(=O)OC(C)(C)C)[C@@H]2C(=O)OC[C@@H]21"
A: 177 to 178 °C

Q: Item: "O=S1(=O)N=CN(C2CC2)c2cc(Br)ccc21"
A: 268 to 271 °C

Q: Next molecule up: "CN(C)CCNC(=O)c1cn(C)c(=O)c2nc3ccccc3nc12"
A: 215 to 218 °C

Q: Entry to check: "CCOC(=O)c1ncc2[nH]c3cccc(Cc4ccccc4)c3c2c1COC"
A: 160 to 168 °C

Q: Another: "C=C[C@H](O)[C@@H](N)CC1CCCCC1"
A: 59 to 61 °C

Q: Now consider O=C(NC1CN2CCC1CC2)c1ccc2[nH]ccc2c1 (configuration not stated) .
A: 293 to 295 °C

---

Value Kind: melting point

| Molecule | Value Kind | Observed Result |
| --- | --- | --- |
| CC(=O)Nc1ccc(C(F)(F)F)cc1-c1ccc(OC(C)C(O)CCc2cccnc2)cc1 (centres undefined) | melting point | 44 to 47 °C |
| CC(=O)NCC1CC(c2ccc(-n3ccc(C=NO)c3)c(F)c2)=NO1 (single isomer, unassigned; (-)) | melting point | 216 to 217 °C |
| Cc1cc(NC(=O)CC(C)(C)C)c2c(c1)C(c1ccc(C(C)C)cc1)C(C)(C)O2 (centres undefined) | melting point | 64 to 68 °C |
| Cn1c2c(c3ccc(-n4ccc(OCc5ccccc5)cc4=O)cc31)CNCCC2 | melting point | 178 to 181 °C |
| CC(=O)c1ccc(-c2ccc(Br)cc2C)cc1 | melting point | 84 to 86 °C |
| CC1=C(C(=O)OCOC(=O)C(C)(C)C)N2C(=O)C(NC(=O)OC(C)(C)C)C2SC1 (centres undefined) | melting point | 97 °C |
| CC(c1cc(F)ccc1Oc1nc2ccc(-n3cc(-c4ccccc4)nn3)cc2cc1Cc1ccccc1)n1ccnc1 (centres undefined) | melting point | 118 to 120 °C |
| COC(=O)c1ccc2c(c1)C(=O)C1(CC1)O2 | melting point | 89 to 91 °C |

Q: Find the recorded melting point belonging to "CCN(CC)CC#CC(=O)Nc1ccc2ncc(C#N)c(Nc3ccc(F)c(Cl)c3)c2c1" and report it.
A: 117 to 120 °C

---

Value Kind: melting point

The cases that follow already have their melting point on record.
| Molecule | melting point |
| --- | --- |
| O=C(O)CCc1ccc2c(c1)CCc1ccc(C(=O)O)cc1S2 | 233 to 235 °C |
| Nc1cc2c(c(C(=O)O)c1)CCCC2 | 178 to 180 °C |
| c1ccc2c(c1)COc1ccccc1-2 | 97 °C |
| CC1(C)CC(c2ccccn2)c2cc(C#N)ccc2O1 (stereo unspecified) | 114 to 115 °C |
| COCc1cc(Cl)n2nc(SCc3ccccc3)nc2n1 | 79 °C |

Next:
Q: Which value of melting point has been reported for "CN1CCC(c2c[nH]c3ccc(OS(=O)(=O)c4ccc(I)cc4)cc23)CC1" in the records?
A: 174 to 176 °C

---

Value Kind: melting point

In the examples that follow, each entry is paired with its recorded melting point.
| Molecule | Value Kind | Observed Result |
| --- | --- | --- |
| C=CC(=O)Oc1ccc(CNS(C)(=O)=O)cc1 | melting point | 112 to 115 °C |
| O=C1C(Cc2ccccc2)C(c2ccccc2)=Nc2ccccc2N1Cc1ccccc1 (configuration not stated) | melting point | 173 to 174 °C |
| COC(=O)CC1Oc2ccccc2Oc2ccccc21 (configuration not stated) | melting point | 72 to 74 °C |
| CCCCCNC(=O)CCCO | melting point | 41 to 43 °C |
| CCC(CC)Oc1cc(C)nc(Nc2c(C)cc(C)cc2C)c1C#N | melting point | 105 to 107 °C |
| N#Cc1cc(Cn2nnc(C(N)=O)c2N)ccc1Cl | melting point | 172 to 175 °C |

Now for the molecule whose melting point we want.
Q: Which melting point reading was recorded for the molecule "CCCCNc1cc(-c2nc(N)n[nH]2)ccn1" ?
A: 268 to 270 °C

Ref: a melting point compilation (Tetko et al.; mined from patent text by program, amines drawn as free bases though some values may be those of a salt)
